tested on: RERF-LC-Sq1 (Squamous Cell Lung Carcinoma); assay: Bliss excess, mean over the matrix (fraction); higher = more synergy;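 further: after 72 h of two-drug dosing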
metric name: Bliss excess
Returns: the value as a bare number; no unit string appended.

# example entries with known answers
compound	test value
Cc1c2c(nn1C)CSCc1cc(n(C)n1)CSc1cc(c3ccccc3c1)OCCCc1c(C(=O)O)n(C)c3c-2c(Cl)ccc13 [AZD5991] + CC1(C)CCC(CN2CCN(c3ccc(C(=O)NS(=O)(=O)c4ccc(NCC5CCOCC5)c([N+](=O)[O-])c4)c(Oc4cnc5[nH]ccc5c4)c3)CC2)=C(c2ccc(Cl)cc2)C1 [Venetoclax] (first compound max 1 µM, 7x7, partner max 1 µM)	-0.0191
Cc1c2c(nn1C)CSCc1cc(n(C)n1)CSc1cc(c3ccccc3c1)OCCCc1c(C(=O)O)n(C)c3c-2c(Cl)ccc13 [AZD5991] + Cc1cc2ncnn2cc1Nc1ncc2c(n1)n(C1CCOCC1)c(=O)n2C [AZD7648] (first compound max 1 µM, 7x7, partner max 10 µM)	-0.0088

API: the following record is the query input.
input: Entry C=CCn1c(=O)c2cnc(Nc3ccc(N4CCN(C)CC4)cc3)nc2n1-c1cccc(C(C)(C)O)n1 [AZD1775] + C1CN(CCC1(C(=O)N[C@@H](CCO)C2=CC=C(C=C2)Cl)N)C3=NC=NC4=C3C=CN4 [Capivasertib] (first compound max 3 µM, partner max 3 µM) : reported Bliss excess = ?
output: -0.0483
